- Measured Target: T1, Bud14, P27637
- T1 sequence (P27637 247-328, looked up): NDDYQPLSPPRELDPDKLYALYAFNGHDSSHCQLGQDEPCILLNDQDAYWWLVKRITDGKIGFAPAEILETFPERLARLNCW
- Method Notes: SPOT array
- Recorded Conditions: median of control spots 956
Provide the reported SPOT intensity of each item.
Form: value (number only, do not type unit).

q: Looking for the measured SPOT intensity of NNNKMRPHLPPLSSG , can you help?
a: 35

q: Looking for the measured SPOT intensity of ATNVPVAPPPPPASL , can you help?
a: 0

q: Looking for the measured SPOT intensity of LASNSPPVYPKRIRH , can you help?
a: 0

q: Looking for the measured SPOT intensity of QNTPPLPPKPKSPHL , can you help?
a: 0

q: Looking for the measured SPOT intensity of GKLKHIPRRPYEIER , can you help?
a: 0

q: Looking for the measured SPOT intensity of VKPRQLFPIPLNKVD , can you help?
a: 0

q: Looking for the measured SPOT intensity of VYTRTAFQIPGDDKI , can you help?
a: 0

q: Looking for the measured SPOT intensity of SSSSSPPPLPTRRDH , can you help?
a: 0

q: Looking for the measured SPOT intensity of RLSFFFPLDPAYIRN , can you help?
a: 12

q: Looking for the measured SPOT intensity of TKHKAPPPPPPTAET , can you help?
a: 0

q: Looking for the measured SPOT intensity of AERNYAPRLPRRETS , can you help?
a: 12

q: Looking for the measured SPOT intensity of KRKRFNLLLPKPYLT , can you help?
a: 34

q: Looking for the measured SPOT intensity of KIRRSSLMIPNPQQF , can you help?
a: 5

q: Looking for the measured SPOT intensity of IVNKPLPPLPVAGSS , can you help?
a: 0

q: Looking for the measured SPOT intensity of NMLKKKPLKKPLKRF , can you help?
a: 33

Where do the numbers come from? From paper PMC2756588.
